These entries and their values trace back to patent US9056843B2.

# tested.target: Human recombinant full length HDAC6 (Homo sapiens (Human), UniProt Q9UBN7)
# Sequence (Q9UBN7 whole entry): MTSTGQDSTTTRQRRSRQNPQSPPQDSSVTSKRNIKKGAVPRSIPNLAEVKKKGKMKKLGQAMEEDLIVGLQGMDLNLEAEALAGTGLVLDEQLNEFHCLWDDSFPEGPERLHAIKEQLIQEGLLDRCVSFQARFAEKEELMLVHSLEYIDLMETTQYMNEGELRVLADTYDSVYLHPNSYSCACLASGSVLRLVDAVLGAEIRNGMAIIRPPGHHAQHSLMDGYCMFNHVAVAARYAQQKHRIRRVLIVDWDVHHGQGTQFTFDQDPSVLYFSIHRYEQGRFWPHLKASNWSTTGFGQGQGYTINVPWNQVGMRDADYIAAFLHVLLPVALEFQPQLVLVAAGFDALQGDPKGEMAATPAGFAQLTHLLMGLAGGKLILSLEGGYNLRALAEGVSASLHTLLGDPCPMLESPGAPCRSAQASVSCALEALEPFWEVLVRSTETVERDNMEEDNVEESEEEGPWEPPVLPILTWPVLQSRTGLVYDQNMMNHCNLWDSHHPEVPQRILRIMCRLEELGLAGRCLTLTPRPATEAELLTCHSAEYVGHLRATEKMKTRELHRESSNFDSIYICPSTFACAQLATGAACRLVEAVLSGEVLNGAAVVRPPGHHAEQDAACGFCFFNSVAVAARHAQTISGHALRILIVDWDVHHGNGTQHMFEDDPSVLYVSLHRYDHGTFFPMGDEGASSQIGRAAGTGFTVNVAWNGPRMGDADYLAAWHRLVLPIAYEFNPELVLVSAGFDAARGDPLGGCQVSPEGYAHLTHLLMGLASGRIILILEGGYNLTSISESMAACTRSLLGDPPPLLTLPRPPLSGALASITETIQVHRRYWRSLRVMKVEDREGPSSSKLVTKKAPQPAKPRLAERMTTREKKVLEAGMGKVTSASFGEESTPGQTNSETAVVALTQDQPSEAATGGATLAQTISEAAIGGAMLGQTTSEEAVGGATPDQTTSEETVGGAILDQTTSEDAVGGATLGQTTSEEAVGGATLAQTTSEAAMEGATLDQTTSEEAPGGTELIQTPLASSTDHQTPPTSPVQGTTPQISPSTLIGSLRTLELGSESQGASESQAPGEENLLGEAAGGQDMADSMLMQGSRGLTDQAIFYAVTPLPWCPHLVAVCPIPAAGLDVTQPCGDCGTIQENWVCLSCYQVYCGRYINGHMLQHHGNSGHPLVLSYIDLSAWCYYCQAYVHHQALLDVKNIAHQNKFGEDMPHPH
# assay.remarks: Test 4: HDAC6 assay
# Format: biochemical
# condition.parameters: Test 4; substrate 5 μM acetyl-Gly-Ala-Lys(acetyl)-AMC
readout.label: IC50 (µM)

// worked examples, IC50 included
smiles.string	readout.value
O=C(NC1CCC1)c1ccc(-c2noc(C(F)(F)F)n2)cc1	6.5
CCCCNC(=O)Cc1ccc(-c2noc(C(F)(F)F)n2)cc1	3.2

[I] CCCN(CCC)C[C@@H](C)NC(=O)c1ccc(-c2noc(C(F)(F)F)n2)cc1F
[II] CN(C)CCN(C)S(=O)(=O)c1ccc(-c2noc(C(F)(F)F)n2)cc1
Req: Which has the higher IC50, I or II ? Bench note: the answer is the label of the chosen record.
Resp: II
(II: 9.9 µM, I: 1.4 µM)

* * *

# tested.target: Human recombinant HDAC4 (Homo sapiens (Human), UniProt P56524)
# Sequence (P56524 2-1084): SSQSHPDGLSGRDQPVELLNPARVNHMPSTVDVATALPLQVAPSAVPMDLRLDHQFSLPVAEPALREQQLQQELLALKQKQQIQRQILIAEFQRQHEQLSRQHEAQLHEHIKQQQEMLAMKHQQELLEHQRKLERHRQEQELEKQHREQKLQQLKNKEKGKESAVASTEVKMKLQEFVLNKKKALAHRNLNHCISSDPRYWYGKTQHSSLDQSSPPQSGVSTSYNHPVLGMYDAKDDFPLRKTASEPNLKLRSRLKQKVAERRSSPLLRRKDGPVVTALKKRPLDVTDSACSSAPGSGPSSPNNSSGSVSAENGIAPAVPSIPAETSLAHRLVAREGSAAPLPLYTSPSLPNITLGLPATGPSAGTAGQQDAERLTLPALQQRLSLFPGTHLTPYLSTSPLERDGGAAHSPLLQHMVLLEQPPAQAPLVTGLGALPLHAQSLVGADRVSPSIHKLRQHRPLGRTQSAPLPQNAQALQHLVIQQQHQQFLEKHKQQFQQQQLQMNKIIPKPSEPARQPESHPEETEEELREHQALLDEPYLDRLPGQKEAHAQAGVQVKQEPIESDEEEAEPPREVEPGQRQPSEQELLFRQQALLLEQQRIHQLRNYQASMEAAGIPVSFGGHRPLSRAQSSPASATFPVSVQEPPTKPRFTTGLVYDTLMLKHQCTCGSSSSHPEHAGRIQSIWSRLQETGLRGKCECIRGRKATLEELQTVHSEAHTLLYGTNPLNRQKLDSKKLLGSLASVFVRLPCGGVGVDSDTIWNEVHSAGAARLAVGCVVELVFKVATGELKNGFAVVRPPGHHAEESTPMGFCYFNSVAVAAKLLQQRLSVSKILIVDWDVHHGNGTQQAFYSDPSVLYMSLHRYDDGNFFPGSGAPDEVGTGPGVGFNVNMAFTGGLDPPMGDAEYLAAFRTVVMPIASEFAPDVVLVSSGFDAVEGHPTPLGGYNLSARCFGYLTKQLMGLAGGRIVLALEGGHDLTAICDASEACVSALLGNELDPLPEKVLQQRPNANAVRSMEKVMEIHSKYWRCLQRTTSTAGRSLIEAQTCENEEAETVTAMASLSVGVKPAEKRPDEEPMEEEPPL
# assay.remarks: Test 2: HDAC4 assay (fluorogenic substrate, 5 μM acetyl-Gly-Ala-Lys(ε-trifluoroacetyl)-AMC)
# Format: biochemical
# condition.parameters: Test 2 (values without asterisk)
pIC50: −log10 of the molar value.
readout.label: pIC50

molecule	tested.target	pIC50
O=C(Nc1ccnc(Cl)c1)c1ccc(-c2noc(C(F)(F)F)n2)cc1	Human recombinant HDAC4 (Homo sapiens (Human), UniProt P56524)	6.80
CN1C(C)(C)CC(NC(=O)c2ccc(-c3noc(C(F)(F)F)n3)cc2)CC1(C)C	Human recombinant HDAC4 (Homo sapiens (Human), UniProt P56524)	6.62

[1] O=C(NCC1CCCCN1)c1ccc(-c2noc(C(F)(F)F)n2)cc1 (stereo not shown)
[2] Cc1cc(NC(=O)c2ccc(-c3noc(C(F)(F)F)n3)cc2)cc(C)n1
[3] CNC(=O)Cc1ccc(-c2noc(C(F)(F)F)n2)cc1
[4] COCCCNC(=O)c1ccc(-c2noc(C(F)(F)F)n2)cc1
[5] O=C(Nc1ccccc1)c1ccc(-c2noc(C(F)(F)F)n2)cc1
Req: Parameters: sort_field (pIC50), sort_dir (desc). Rank the items, then write their labels in that order.
Resp: 1, 2, 4, 3, 5
(1: 7.52, 2: 6.77, 4: 6.14, 3: 5.72, 5: 5.17)

* * *

# tested.target: Human recombinant full length HDAC6 (Homo sapiens (Human))
# assay.remarks: Test 4: HDAC6 assay
# Format: biochemical
# condition.parameters: Test 4; substrate 5 μM acetyl-Gly-Ala-Lys(acetyl)-AMC
pIC50: −log10 of the molar value.
readout.label: pIC50

[a] CC(C)N(C)C[C@@H](C)NC(=O)c1ccc(-c2noc(C(F)(F)F)n2)cc1F
[b] CNCCNC(=O)c1ccc(-c2noc(C(F)(F)F)n2)cc1
Req: Given a and given b , which shows the smaller recorded pIC50? Bench note: the answer is the label of the chosen record.
Resp: a
(a: 5.27, b: 5.47)

* * *

# tested.target: Human recombinant full length HDAC6 (Homo sapiens (Human))
# assay.remarks: Test 4: HDAC6 assay
# Format: biochemical
# condition.parameters: Test 4; substrate 5 μM acetyl-Gly-Ala-Lys(acetyl)-AMC
readout.label: IC50 (µM)

// worked examples, IC50 included
compound	result.units	readout.value
C[C@H](CO)NC(=O)c1ccc(-c2noc(C(F)(F)F)n2)cc1 [Example 28]	µM	7.7
C[C@H](CN1CCOCC1)NC(=O)c1ccc(-c2noc(C(F)(F)F)n2)cc1 [Example 147]	µM	6.7
C[C@H](CN(C)Cc1ccccc1)NC(=O)c1ccc(-c2noc(C(F)(F)F)n2)cc1 [Example 156]	µM	2.3

[P] CN(C)C[C@@H](Cc1ccccc1)NC(=O)c1ccc(-c2noc(C(F)(F)F)n2)cc1 [Example 92]
[Q] Cc1cccc(NS(=O)(=O)c2ccc(-c3noc(C(F)(F)F)n3)cc2)c1 [Example 105]
[R] O=C(Nc1ccnc(C(F)(F)F)c1)c1ccc(-c2noc(C(F)(F)F)n2)cc1 [Example 74]
[S] CCN(CC)CCNC(=O)c1ccc(-c2noc(C(F)(F)F)n2)cc1 [Example 155]
[T] Cc1ccccc1NS(=O)(=O)c1ccc(-c2noc(C(F)(F)F)n2)cc1 [Example 103]
Req: Parameters: sort_field (IC50), sort_dir (desc). Rank the items, then write their labels in that order.
Resp: R, P, S, T, Q

[a] O=C(NCCCn1ccnc1)c1ccc(-c2noc(C(F)(F)F)n2)cc1 [Example 40]
[b] COc1cc(NC(=O)c2ccc(-c3noc(C(F)(F)F)n3)cc2)ccn1 [Example 67]
[c] O=S(=O)(Nc1ccccc1Cl)c1ccc(-c2noc(C(F)(F)F)n2)cc1 [Example 104]
Req: Sort (3 compounds) by IC50: min first. Rank the items, then write their labels in that order.
Resp: c, a, b
(c: 0.77 µM, a: 4.6 µM, b: 8.3 µM)

[I] CCCN(C)C[C@@H](C)NC(=O)c1ccc(-c2noc(C(F)(F)F)n2)cc1F [Example 143]
[II] CN(C)CCNS(=O)(=O)c1ccc(-c2noc(C(F)(F)F)n2)cc1 [Example 98]
Req: Given I and given II , which shows the smaller recorded IC50? Bench note: the answer is the label of the chosen record.
Resp: I
(I: 3.3 µM, II: 6.4 µM)

* * *

# tested.target: Human recombinant full length HDAC6 (Homo sapiens (Human), UniProt Q9UBN7)
# assay.remarks: Test 4: HDAC6 assay
# Format: biochemical
# condition.parameters: Test 4; substrate 5 μM acetyl-Gly-Ala-Lys(acetyl)-AMC
pIC50: −log10 of the molar value.
readout.label: pIC50

// worked examples, pIC50 included
compound	readout.value
CN(C)C[C@H](Cc1ccccc1)NC(=O)c1ccc(-c2noc(C(F)(F)F)n2)cc1F	5.82
C[C@H](CN1CCCC1)NC(=O)c1ccc(-c2noc(C(F)(F)F)n2)cc1F	5.35
CC(C)(C)OC(=O)N1CCC(NC(=O)c2ccc(-c3noc(C(F)(F)F)n3)cc2)C1 (stereo not drawn)	5.24
Cc1cc(NC(=O)c2ccc(-c3noc(C(F)(F)F)n3)cc2F)cc(C)n1	5.60
Cc1cc(NC(=O)c2ccc(-c3noc(C(F)(F)F)n3)cc2)cc(C)n1	5.28

[A] CN(C)C(=O)Cc1ccc(-c2noc(C(F)(F)F)n2)cc1
[B] O=C(Nc1cccnc1)c1ccc(-c2noc(C(F)(F)F)n2)cc1
[C] CCCCN(C)C[C@@H](C)NC(=O)c1ccc(-c2noc(C(F)(F)F)n2)cc1F
Req: Parameters: sort_field (pIC50), sort_dir (desc). Rank the items, then write their labels in that order.
Resp: C, B, A

[P] CCCN(CCC)C[C@@H](C)NC(=O)c1ccc(-c2noc(C(F)(F)F)n2)cc1
[Q] COCCCNC(=O)c1ccc(-c2noc(C(F)(F)F)n2)cc1
Req: Given P and given Q , which shows the smaller recorded pIC50? Bench note: the answer is the label of the chosen record.
Resp: Q
(Q: 5.24, P: 5.52)

* * *

The compounds listed here are annotated with their IC50.
# tested.target: Human recombinant full length HDAC1 (Homo sapiens (Human))
# Sequence (Q13547 whole entry): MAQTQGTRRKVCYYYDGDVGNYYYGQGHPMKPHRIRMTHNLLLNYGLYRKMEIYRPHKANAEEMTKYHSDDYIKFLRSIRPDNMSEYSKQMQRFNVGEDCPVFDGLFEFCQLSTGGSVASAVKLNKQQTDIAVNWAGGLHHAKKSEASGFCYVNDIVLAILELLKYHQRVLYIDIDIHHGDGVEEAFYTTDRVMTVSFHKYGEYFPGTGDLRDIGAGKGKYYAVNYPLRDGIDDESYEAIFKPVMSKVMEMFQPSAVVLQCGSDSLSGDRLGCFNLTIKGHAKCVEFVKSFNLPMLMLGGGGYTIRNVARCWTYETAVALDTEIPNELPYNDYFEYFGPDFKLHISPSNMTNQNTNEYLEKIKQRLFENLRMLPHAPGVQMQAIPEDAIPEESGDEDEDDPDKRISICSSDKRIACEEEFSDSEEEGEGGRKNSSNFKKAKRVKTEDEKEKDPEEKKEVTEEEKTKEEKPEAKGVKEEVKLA
# assay.remarks: Test 3: HDAC1 assay
# condition.parameters: substrate 5 μM acetyl-Gly-Ala-Lys(acetyl)-AMC

// worked examples, IC50 included
smiles.string	IC50
CCN(CC)C[C@H](C)NC(=O)c1ccc(-c2noc(C(F)(F)F)n2)cc1F	> 10 µM
C[C@H](CN1CCOCC1)NC(=O)c1ccc(-c2noc(C(F)(F)F)n2)cc1	> 10 µM
O=S(=O)(Nc1ccc(F)cc1)c1ccc(-c2noc(C(F)(F)F)n2)cc1	> 10 µM

Next item in the queue.
What the record says about Cc1cccc(NS(=O)(=O)c2ccc(-c3noc(C(F)(F)F)n3)cc2)c1 : IC50 is 3.6 µM

* * *

# tested.target: Human recombinant HDAC4 (Homo sapiens (Human), UniProt P56524)
# assay.remarks: Test 2: HDAC4 assay (fluorogenic substrate, 5 μM acetyl-Gly-Ala-Lys(ε-trifluoroacetyl)-AMC)
# Type: biochemical
# condition.parameters: Test 2 (values without asterisk)
readout.label: IC50 (nM)

// worked examples, IC50 included
smiles.string	tested.target	result.units	IC50
CC(=O)N1CCC(NC(=O)c2ccc(-c3noc(C(F)(F)F)n3)cc2)CC1	Human recombinant HDAC4 (Homo sapiens (Human), UniProt P56524)	nM	510
O=C(c1ccc(-c2noc(C(F)(F)F)n2)cc1)N1CCCCC1	Human recombinant HDAC4 (Homo sapiens (Human), UniProt P56524)	nM	400
CCNC(=O)c1ccc(-c2noc(C(F)(F)F)n2)cc1	Human recombinant HDAC4 (Homo sapiens (Human), UniProt P56524)	nM	430
CCCCN(C)C[C@@H](C)NC(=O)c1ccc(-c2noc(C(F)(F)F)n2)cc1F	Human recombinant HDAC4 (Homo sapiens (Human), UniProt P56524)	nM	1.8
O=C(c1ccc(-c2noc(C(F)(F)F)n2)cc1)N1CCN(c2ccccc2)CC1	Human recombinant HDAC4 (Homo sapiens (Human), UniProt P56524)	nM	4200

[a] CC(C)C[C@H](CN(C)C)NC(=O)c1ccc(-c2noc(C(F)(F)F)n2)cc1
[b] CN1CCC(CNC(=O)c2ccc(-c3noc(C(F)(F)F)n3)cc2)CC1
Req: Given a and given b , which shows the smaller recorded IC50? Bench note: the answer is the label of the chosen record.
Resp: a
(a: 48 nM, b: 990 nM)

[1] C[C@H](CN1CCCC1)NC(=O)c1ccc(-c2noc(C(F)(F)F)n2)cc1F
[2] O=C(Cc1ccc(-c2noc(C(F)(F)F)n2)cc1)N1CCOCC1
Req: Given 1 and given 2 , which shows the smaller recorded IC50? Bench note: the answer is the label of the chosen record.
Resp: 1
